Molecular target: Serine/threonine-protein kinase VRK2 (Homo sapiens);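 further: remaining VRK2 kinase activity expressed as percent of uninhibited control, measured in MOPS buffer at pH 7.0 containing EDTA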
Conditions: at 1 µM
Description: Millipore: Percentage of residual kinase activity of VRK2 at 1uM relative to control. Control inhibitor: Phosphoric acid* at 0.3uM. Buffer: 8 mM MOPS pH 7.0, 0.2 mM EDTA
readout: residual activity (%)
Express your answer in %, writing the number without its unit.

Query: Which residual activity is listed for CCOc1cc2ncnc(Nc3cccc(Br)c3)c2cc1OCC ?
Reply: 99

Query: # iterate: O=C1NC(=O)c2c1c1c3ccccc3[nH]c1c1[nH]c3cc(Br)ccc3c21
Reply: 95

Query: Continue with c1ccc(-c2n[nH]c3c2oc2ccccc23)cc1
Reply: 99

Query: Now the same for O=C(Nc1cccc(Nc2nccc(Nc3cccc(C(F)(F)F)c3)n2)c1)C1CC1
Reply: 93

Query: Now try Cc1cccc(-c2[nH]c(C(C)(C)C)nc2-c2ccc3c(c2)OCO3)n1 .
Reply: 105

Query: Next compound: Cn1cc(/C=C2\C(=O)Nc3ccc(S(N)(=O)=O)cc32)c2ccccc21
Reply: 114

Query: What do we get for CO[C@H]1[C@@H](OC)C[C@H](C)[C@@H](OC)C2=CC(=O)C=C(NC(=O)/C(C)=C/C=C/[C@H](OC)[C@@H](OC(N)=O)/C(C)=C/[C@@H]1C)C2=O ?
Reply: 108

Query: NC(=O)c1ccc2[nH]c(-c3ccc(Oc4ccc(Cl)cc4)cc3)nc2c1 ?
Reply: 88

Query: Input Cc1nc2cc3nc(-c4cccs4)cnc3cc2n1C
Reply: 111

Query: # iterate: O=C1Nc2ccccc2/C1=C1/Nc2ccccc2/C1=N\OCCC(O)CO (centres undefined)
Reply: 69

Query: c1ccc2c(-c3ccncc3)c[nH]c2c1 ?
Reply: 101

Query: Here is the next compound: CCN(CC)CCCCN1c2ccccc2Oc2ccc(Cl)cc21
Reply: 126

Query: Another compound to check: O=C1NC(=O)/C(=C/c2ccc3c(c2)OC(F)(F)O3)S1
Reply: 112

Query: Next record, please: O=c1cc(-c2cccc3c2Sc2ccccc2S3)oc(N2CCOCC2)c1
Reply: 97

Query: Next: Ic1cccc(CSc2nnc(-c3ccncc3)o2)c1
Reply: 92

Query: Now the compound CO[C@H]1C[C@@H]2CC[C@@H](C)[C@@](O)(O2)C(=O)C(=O)N2CCCC[C@H]2C(=O)O[C@H]([C@H](C)C[C@@H]2CC[C@@H](O)[C@H](OC)C2)CC(=O)[C@H](C)/C=C(\C)[C@@H](O)[C@@H](OC)C(=O)[C@H](C)C[C@H](C)/C=C/C=C/C=C/1C
Reply: 97

Query: # iterate: O=C(Nc1cccc(Nc2cc(Nc3cccc(C(F)(F)F)c3)ncn2)c1)C1CC1
Reply: 107

Query: Likewise for O=C1Nc2cc(Br)ccc2/C1=C1/Nc2ccccc2/C1=N\O ?
Reply: 94

Query: Try this compound next: CC(C)n1cnc2c(NCc3ccccc3)nc(NCCCO)nc21
Reply: 95

Query: # repeat for Cc1ccc(S(=O)(=O)/C=C/C#N)cc1
Reply: 91

Query: Lookup CC(C)n1cnc2/c(=N/c3cccc(Cl)c3)nc(NCCO)[nH]c21
Reply: 71

Query: Then what about the compound Cc1cncc2cccc(S(=O)(=O)N3CCCN(C(=O)CN)C[C@H]3C)c12 ?
Reply: 94

Query: // next record COc1cc2ncnc(Nc3ccc(O)c(Br)c3)c2cc1OC
Reply: 83

Query: Param item: O=Nc1c(-c2c(O)[nH]c3ccccc23)[nH]c2ccccc12
Reply: 71

====

Can you tell me residual activity for the items I'm about to list?
Biological target: Dual specificity protein kinase CLK3 (Homo sapiens) (UniProt P49761)
Sequence (P49761 whole entry, looked up): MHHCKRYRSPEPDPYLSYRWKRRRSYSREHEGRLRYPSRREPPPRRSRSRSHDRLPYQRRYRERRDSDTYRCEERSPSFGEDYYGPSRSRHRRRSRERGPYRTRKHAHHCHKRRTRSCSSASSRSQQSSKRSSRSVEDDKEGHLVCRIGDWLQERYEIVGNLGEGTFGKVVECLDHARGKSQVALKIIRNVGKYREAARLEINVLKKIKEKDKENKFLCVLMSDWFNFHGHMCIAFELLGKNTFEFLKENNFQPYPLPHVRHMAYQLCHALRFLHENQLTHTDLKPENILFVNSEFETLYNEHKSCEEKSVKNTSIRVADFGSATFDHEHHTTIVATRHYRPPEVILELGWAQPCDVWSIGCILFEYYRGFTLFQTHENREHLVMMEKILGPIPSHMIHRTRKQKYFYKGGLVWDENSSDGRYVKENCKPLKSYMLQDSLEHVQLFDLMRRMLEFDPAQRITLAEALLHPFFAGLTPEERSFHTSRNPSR
Conditions: at 10 µM
Provide the reading as a plain figure in %.

Query: Quick one: residual activity of CN(C)c1ccc(/C=C2\C(=O)Nc3ccccc32)cc1 ?
Reply: 13

Query: // query: Cc1cc2ncc(-c3ccccc3)nc2cc1C
Reply: 96

Query: Proceed to Cc1cncc2cccc(S(=O)(=O)N3CCCN(C(=O)CN)C[C@H]3C)c12
Reply: 98

Query: Try this compound too: NC(=O)c1ccc2[nH]c(-c3ccc(Oc4ccc(Cl)cc4)cc3)nc2c1
Reply: 82

Query: Moving on to COc1cccc(-c2cc(=O)c3ccccc3o2)c1N
Reply: 71

Query: Try O=C(Nc1cccc(Nc2cc(Nc3cccc(C(F)(F)F)c3)ncn2)c1)C1CC1 next.
Reply: 32

Query: Let us now turn to COc1cc2ncnc(Nc3ccc(O)c(Br)c3)c2cc1OC
Reply: 118

Query: Next: CCN(CC)CCCCN1c2ccccc2Oc2ccc(Cl)cc21
Reply: 92

Query: Same question for COc1ccc(S(=O)(=O)N(CCO)c2ccccc2CN(C)C/C=C/c2ccc(Cl)cc2)cc1 please.
Reply: 86

Query: Would you mind doing CC(C)n1cnc2c(NCc3ccccc3)nc(NCCCO)nc21 as well?
Reply: 67

Query: # iterate: N#C/C(=C(\N)Sc1ccc(N)cc1)c1ccccc1C(F)(F)F
Reply: 92

====

Provide the reported residual activity of each item.
Target: Serine/threonine-protein kinase tousled-like 2 (Homo sapiens)
Conditions: at 10 µM
I only need the number, in %, no unit after it.

Query: Data request, read-out residual activity, for NC(=O)c1ccc2[nH]c(-c3ccc(Oc4ccc(Cl)cc4)cc3)nc2c1
Reply: 82

Query: And the next one, COc1ccc(C(=O)Nc2sc3c(c2C(N)=O)CCCC3)cc1OC ?
Reply: 87

Query: Moving on to the next compound: O=Nc1c(-c2c(O)[nH]c3ccccc23)[nH]c2ccccc12
Reply: 14

Query: Would you kindly repeat that for CC(=O)O/N=C1\C(=C2\C(=O)Nc3cc(Br)ccc32)Nc2ccccc21 ?
Reply: 86

Query: // same read-out, input: Cn1cnc2cc3c(Nc4cccc(Br)c4)ncnc3cc21
Reply: 92

Query: Queued: Nc1nc(Nc2ccc(S(N)(=O)=O)cc2)nn1C(=S)Nc1c(F)cccc1F
Reply: -1

====

Biological target: Serine/threonine-protein kinase Sgk1 (Homo sapiens)
Details: at 10 µM
readout: residual activity
In your response, put the unit directly after the numeric value.

Query: Param item = CC[n+]1c(/C=C/N(C)c2ccccc2)n(-c2ccccc2)c2ccc(-c3nc4ccccc4s3)cc21 ; retrieve measured residual activity.
Reply: 65%

Query: Now try CC#CC(=O)Nc1cc2c(Nc3ccc(F)c(Cl)c3)ncnc2cn1 .
Reply: 106%

Query: Please do the same for O=C1Nc2ccccc2/C1=C1/Nc2ccccc2/C1=N\OCCC(O)CO (centres undefined) as well.
Reply: 29%

Query: Would you mind doing c1ccc(-c2n[nH]cc2-c2ccnc3ccccc23)nc1 as well?
Reply: 95%

Query: // same read-out, input: CC(C)n1cnc2c(NCc3ccccc3)nc(NCCCO)nc21
Reply: 105%

Query: And what about the molecule CC(C)n1cnc2/c(=N/c3cccc(Cl)c3)nc(NCCO)[nH]c21 ?
Reply: 110%

Query: What would you report for Oc1c2ccccc2c2c3c(cccc13)N=N2 ?
Reply: 24%

Query: And what about the molecule CCOc1cc2ncnc(Nc3cccc(Br)c3)c2cc1OCC ?
Reply: 89%

Query: Okay, and Cn1nc2c3c(cccc31)C(=O)c1ccccc1-2 ?
Reply: 72%

Query: Follow-up item: Cc1ccc(NC2=CC(=O)c3sc(C)nc3C2=O)cc1
Reply: 92%

Query: Okay, and Nc1cccc(-c2cc3c(Oc4cccc(O)c4)ncnc3[nH]2)c1 ?
Reply: 96%

Query: Then this molecule: O=C(Nc1cccc(Nc2nccc(Nc3cccc(C(F)(F)F)c3)n2)c1)C1CC1
Reply: 66%

Query: Follow-up entry: O=C1NC(=O)c2cc(Nc3ccc(F)cc3)c(Nc3ccc(F)cc3)cc21
Reply: 76%

Query: Again, but for O=Nc1c(-c2c(O)[nH]c3ccccc23)[nH]c2ccccc12
Reply: 28%

Query: // query: Nc1n[nH]c2nnc(-c3c(-c4ccccc4)nn4ccccc34)cc12
Reply: 123%

Query: Another molecule: COc1ccc(CNc2nc(N(CCO)CCO)nc3c2ncn3C(C)C)cc1
Reply: 116%

Query: Now consider COc1cccc(-c2cc(=O)c3ccccc3o2)c1N and answer again.
Reply: 120%

Query: Then this molecule: Nc1ccc2ncnc(NCCc3ccc(Oc4ccccc4)cc3)c2c1
Reply: 125%

Query: Would you kindly repeat that for O=C1Nc2ccc(Br)cc2/C1=C\c1cc2c([nH]1)CCCC2 ?
Reply: 84%

Query: Again, but for CN(C)CCCn1cc(C2=C(c3c[nH]c4ccccc34)C(=O)NC2=O)c2ccccc21
Reply: 13%

Query: Another: Cc1ccc(S(=O)(=O)/C=C/C#N)cc1
Reply: 104%

Query: Input CO[C@@H]1[C@H](N(C)C(=O)c2ccccc2)C[C@H]2O[C@]1(C)n1c3ccccc3c3c4c(c5c6ccccc6n2c5c31)C(=O)NC4
Reply: 18%

Query: Please give the result for N#CC(C#N)=C(N)/C(C#N)=C/c1ccc(O)cc1 too.
Reply: 86%

Query: Same again, this time with Nc1nc(Nc2ccc(S(N)(=O)=O)cc2)nn1C(=S)Nc1c(F)cccc1F
Reply: 16%

Query: What would you report for COc1ccc(C(=O)Nc2sc3c(c2C(N)=O)CCCC3)cc1OC ?
Reply: 109%

Query: Likewise for C[C@@H](N)[C@H]1CC[C@H](C(=O)Nc2ccncc2)CC1 ?
Reply: 94%

Query: Cool, now N#CCCc1ccc2c(c1)-c1[nH]c3ccc([N+](=O)[O-])cc3c1CC(=O)N2
Reply: 79%

Query: Ok, now O=C1Nc2cc(Br)ccc2/C1=C1/Nc2ccccc2/C1=N\O
Reply: 14%

Query: Then what about the molecule CC(=O)c1ccc(N2CCOCC2)cc1O ?
Reply: 62%

Query: # iterate: O=C(Nc1cccc(Nc2cc(Nc3cccc(C(F)(F)F)c3)ncn2)c1)C1CC1
Reply: 85%

Query: Then this molecule: c1ccc(-c2n[nH]c3c2oc2ccccc23)cc1
Reply: 114%

Query: Consider next the molecule O=C1NC(=O)c2c1c1c3ccccc3[nH]c1c1[nH]c3cc(Br)ccc3c21 in the same way.
Reply: 50%

Query: Same question, O=C1NC(=O)/C(=C/c2ccc3c(c2)OC(F)(F)O3)S1 this time
Reply: 82%

Query: Next molecule up: CO[C@H]1[C@@H](OC)C[C@H](C)[C@@H](OC)C2=CC(=O)C=C(NC(=O)/C(C)=C/C=C/[C@H](OC)[C@@H](OC(N)=O)/C(C)=C/[C@@H]1C)C2=O
Reply: 78%
